Values from patent US9839642B2

# target.or.system: IMP-1 (Serratia marcescens)
# Sequence (P52699 19-246, looked up, species assumed): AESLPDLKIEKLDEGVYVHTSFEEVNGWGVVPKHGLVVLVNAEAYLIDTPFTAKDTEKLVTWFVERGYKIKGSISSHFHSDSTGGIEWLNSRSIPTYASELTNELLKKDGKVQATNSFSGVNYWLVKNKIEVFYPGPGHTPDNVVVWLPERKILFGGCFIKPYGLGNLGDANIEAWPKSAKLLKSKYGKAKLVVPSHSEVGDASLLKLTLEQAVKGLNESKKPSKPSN
# method.summary: Enzyme activity: determination of IC50, fluorescence assay with CCF2-FA substrate
# Format: biochemical
# measurement.conditions: IMP-1 enzyme 2 pM, CCF2-FA 1.25 μM, 2 hours at 25° C.; read-out: IMP1 IC50
pIC50: −log10 of the molar value.
Would you mind labelling by pIC50? At or over 6 is met, under is not met.

// below: answered molecules
INSERT INTO results (molecule, target_or_system, assigned_label) VALUES
  ('CCC[C@H](C(=O)[O-])[C@H](Cc1ccc(C2=CCC[N+](C)(C)C2)nc1)c1nnn[nH]1', 'IMP-1 (Serratia marcescens)', 'not met'),
  ('CC(C)C[C@H](C(=O)O)[C@H](Cc1ccc(Oc2ccc(CCN)cc2)nc1)c1nn[nH]n1 [Example 392]', 'IMP-1 (Serratia marcescens)', 'met'),
  ('CCC[C@H](C(=O)O)[C@H](Cc1ccc(C2CCN(C=N)C2)nc1)c1nnn[nH]1 (some centres unmarked)', 'IMP-1 (Serratia marcescens)', 'not met'),
  ('CCC[C@H](C(=O)[O-])[C@H](Cc1ccc(C2CC[N+](C)(C)C2)cc1)c1nnn[nH]1 (some centres unmarked)', 'IMP-1 (Serratia marcescens)', 'not met'),
  ('CCC[C@H](C(=O)O)[C@H](Cc1ccc(-c2ccc3c(c2)CNC3)cc1)c1nnn[nH]1', 'IMP-1 (Serratia marcescens)', 'met');

Would you kindly look at the next entry?
Ask | I'd appreciate it if you could say whether CCC[C@H](C(=O)O)[C@H](Cc1ccc(-c2cnn(Cc3ccncc3)c2)cc1)c1nnn[nH]1 has pIC50 at least equal to 6.
Reply | met

====

Assign NDM1 EC30005 MITC95 to each entry below.
# Tested on: Escherichia coli expressing NDM-1 (CLB30005)
# method.summary: Antibiotic potentiation activity: synergistic concentration (MITC95) with imipenem, growth by OD600
# Format: cell-based
# measurement.conditions: 95% inhibition of bacterial growth, strain CLB30005

# count of solved cases: 10
INSERT INTO results (molecule, target_or_system, result) VALUES
  ('O=C(O)[C@@H](CC(F)F)[C@H](Cc1ccccc1)c1nnn[nH]1', 'Escherichia coli expressing NDM-1 (CLB30005)', '31 µM'),
  ('NC(=O)CCCC[C@H](C(=O)O)[C@H](Cc1ccccc1)c1nnn[nH]1', 'Escherichia coli expressing NDM-1 (CLB30005)', '100 µM'),
  ('CC(C)C[C@H](C(=O)O)[C@@H](c1nnn[nH]1)[C@H](C)c1ccccc1', 'Escherichia coli expressing NDM-1 (CLB30005)', '15.6 µM'),
  ('CCC[C@H](C(=O)O)[C@H](Cc1ccc(-c2cccc(CN)c2)cc1)c1nn[nH]n1', 'Escherichia coli expressing NDM-1 (CLB30005)', '6.2 µM'),
  ('O=C(O)CCCC[C@H](C(=O)O)[C@H](Cc1ccccc1)c1nnn[nH]1', 'Escherichia coli expressing NDM-1 (CLB30005)', '25 µM'),
  ('CCC[C@H](C(=O)O)[C@H](Cc1ccc(-c2cccc(C(N)=O)c2)cc1)c1nn[nH]n1', 'Escherichia coli expressing NDM-1 (CLB30005)', '7.8 µM'),
  ('CCC[C@H](C(=O)O)[C@H](Cc1ccc(-c2ccc3c(c2)CCNC3)cc1)c1nnn[nH]1', 'Escherichia coli expressing NDM-1 (CLB30005)', '9.4 µM'),
  ('CCC[C@H](C(=O)O)[C@H](Cc1ccc(-c2cnc(N(C)S(C)(=O)=O)nc2)cc1)c1nnn[nH]1', 'Escherichia coli expressing NDM-1 (CLB30005)', '38 µM'),
  ('CCC[C@H](C(=O)O)[C@H](Cc1ccc(-c2cncc(N3CCN(C)CC3)c2)cc1)c1nn[nH]n1', 'Escherichia coli expressing NDM-1 (CLB30005)', '9.4 µM'),
  ('CCCC(C)[C@H](C(=O)O)[C@H](Cc1ccccc1)c1nnn[nH]1 (some centres unmarked)', 'Escherichia coli expressing NDM-1 (CLB30005)', '18.8 µM');

For every item below, please supply its NDM1 EC30005 MITC95.
1. O=C(O)[C@@H](CCCC(F)(F)F)[C@H](Cc1ccccc1)c1nnn[nH]1
2. CC(C)=CCC[C@@H](C(=O)O)[C@H](Cc1ccccc1)c1nnn[nH]1
3. CCC[C@H](C(=O)O)[C@H](Cc1ccc(-c2csc(N3CCOCC3)n2)cc1)c1nn[nH]n1
4. CCC[C@H](C(=O)O)[C@H](Cc1ccc(-c2cccc3c2CNC3=O)cc1)c1nnn[nH]1

Reply |
["75 µM", "15.6 µM", "25 µM", "50 µM"]

Please look at the items below and tell me NDM1 EC30005 MITC95 for each one, in order.
1. CCC[C@H](C(=O)O)[C@H](Cc1ccc(-c2cccc(CN3CCOCC3)c2)cc1)c1nn[nH]n1
2. CCC[C@H](C(=O)O)[C@H](Cc1ccc(-c2c(C)nn(C)c2C)cc1)c1nnn[nH]1
3. O=C(O)[C@@H](CCF)[C@H](Cc1ccccc1)c1nnn[nH]1

Reply |
1: 16 µM; 2: 100 µM; 3: 75 µM
